TEST_SYSTEM: TAF1(2) bromodomain (Homo sapiens, UniProt P21675)
Construct: with specific focus on TAF1(2) bromodomain assessed by the KdELECT assay; purchased Eurofins/DiscoverX
Sequence (P21675 1519-1628 limits assumed): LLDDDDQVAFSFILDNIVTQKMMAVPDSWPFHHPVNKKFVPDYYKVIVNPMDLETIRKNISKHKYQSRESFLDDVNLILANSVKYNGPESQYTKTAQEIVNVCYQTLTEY
EXPERIMENTAL_DETAILS: Eurofins/DiscoverX KdELECT, TAF1(2) bromodomain IC50
Format: binding
ASSAY_CONTEXT: kdELECT, 11-point 3-fold dilution, top concentration 10,000 nM; read-out: TAF1(2) IC50
PARAMETER: IC50 (nM)
API: value field is a number in nM; no unit string.

CHEM_SMILES: Cn1cc(-c2cc(NC(=O)c3ccc(C(C)(C)C)cc3)n[nH]2)ccc1=O
UOM: nM
MEASURED_VALUE: 5.1

Then this compound:
Find IC50 (TAF1(2) bromodomain (Homo sapiens, UniProt P21675)) for the entry "COc1ccc(-c2cc(NC(=O)c3ccc(C(C)(C)C)cc3)[nH]n2)cc1"
480
